Assay: qHTS assay for identifying genotoxic compounds that show differential cytotoxicity against isogenic chicken DT40 cell lines with known DNA damage response pathways - wild type cell line (AID 743012); further: nearly all actives have a fitted effect of over 60% in size; further: potency means the concentration at half of the fitted maximal effect
Settings: DT40 wild type chicken cells viability, CellTiter-Glo, 40 h; series mostly up to 68.4 µM
Results filed as inconclusive are left out. Calls of active or inactive are those of the source. The call rests on the fitted dose curve; in most records, active means well fitted cell-killing curve with a large enough effect in the repeat runs; inconclusive means weak or mixed curves, or effect the other way; inactive means no such curve, though single readings can be large or run the other way.
OUTCOME_MEASURE: Potency

>>> endpoint_result("Cc1cc(C(C)(C)c2cc(C)c(O)c(C)c2)cc(C)c1O")
"52.7 µM (active)"
>>> endpoint_result("COc1ccc(OC)c(CC(C)N)c1 (stereo not drawn)")
"inactive"
>>> endpoint_result("CCc1nn(C)c(C(=O)NCc2ccc(C(C)(C)C)cc2)c1Cl")
"0.077 µM (active)"
>>> endpoint_result("CC[C@H]1C[C@@H]2C[C@H]3c4[nH]c5ccc(OC)cc5c4CCN(C2)[C@@H]13")
"23.9 µM (active)"
>>> endpoint_result("O=c1oc2ccccc2c(O)c1Cc1c(O)c2ccccc2oc1=O")
"inactive"

Task: Give recorded Potency. C[C@]12CC[C@@H]3c4ccc(OC(=O)N(CCCl)CCCl)cc4CC[C@H]3[C@@H]1CC[C@@H]2O
Result: inactive

Task: Give recorded Potency. O=C(Nc1ccc2[nH]ccc2c1)c1cc2cc(F)ccc2n1Cc1cccc(F)c1
Result: 19.3 µM (active)

Task: Give recorded Potency. O=[N+]([O-])c1cc([N+](=O)[O-])c2ccccc2c1
Result: 6.11 µM (active)

---

Assay: qHTS assay to identify small molecule antagonists of the retinoid-related orphan receptor gamma (ROR-gamma) signaling pathway - cell viability counter screen (AID 1159520); further: nearly all actives have a fitted effect of over 50% in size
Conditions: Tet-on RORgamma CHO cells viability, ATP luminescence, 16 h; series mostly up to 92.4 µM
Records with an inconclusive call do not appear. Calls of active or inactive are those of the source. Calls come from the whole dose curve; as a rule, active = well fitted cell-killing curve with a large enough effect in the repeat runs; inconclusive = weak or mixed curves, or effect the other way; inactive = no such curve, though single readings can be large or run the other way.
Pick from true = active, false = inactive when you respond.

These recorded examples may help you get a feel for the data.
>>> classification("CC(O)C#N (stereo not given)")
"false"
>>> classification("Cl/C=C\\CCl")
"false"
>>> classification("COP(N)(=S)OC")
"false"

Task: Check the results log: what was the call for CC(=O)c1cc(C(C)(C)C)cc2c1CCC2(C)C ?
Result: false

Task: Check the results log: what was the call for [Cl][Sb]([Cl])[Cl] ?
Result: true

Task: Check the results log: what was the call for Nc1ccc(Cc2ccc(N)c(Cl)c2)cc1Cl ?
Result: false

Task: Check the results log: what was the call for CCCCCCCCCCCCCN1CC(C)OC(C)C1 (stereo not given) ?
Result: false

---

Experiment: qHTS assay for small molecule agonists of the p53 signaling pathway - cell viability (AID 651633); further: nearly all actives have a fitted effect of over 30% in size
Settings: p53RE-bla HCT-116 viability, ATP luminescence, 16 h; series mostly up to 83.3 µM
Records with an inconclusive call do not appear. Calls of active or inactive are those of the source. The call rests on the fitted dose curve.
Pick from true (active), false (inactive) when you respond.

>>> classification("CCCCCCCCCCCCCC[P+](CCCCCC)(CCCCCC)CCCCCC (tested in a mixture with another compound)")
"true"
>>> classification("C[C@@H]1O[C@@H](O[C@@H]2C=C3CC[C@@H]4[C@H](CC[C@]5(C)[C@@H](c6ccc(=O)oc6)CC[C@]45O)[C@@]3(C)CC2)[C@H](O)[C@H](O)[C@H]1O")
"true"
>>> classification("Cc1cc(C)cc(OP(=O)(Oc2cc(C)cc(C)c2)Oc2cc(C)cc(C)c2)c1")
"false"
>>> classification("C1CCC2CCCCC2C1 (centres undefined)")
"false"
>>> classification("COP(=O)(OC)SCn1c(=O)oc2cc(Cl)cnc21")
"false"

Task: Check the results log: what was the call for CC(C)CC(C)N (centres undefined) ?
Result: false

Task: Check the results log: what was the call for CCCCCCCCCBr ?
Result: false

Task: Check the results log: what was the call for COc1cc(N)c(Cl)cc1C(=O)NC1CN2CCC1CC2 (centres undefined) ?
Result: false

Task: Check the results log: what was the call for CS(=O)(=O)c1ccc(C(=O)C2C(=O)CCCC2=O)c([N+](=O)[O-])c1 ?
Result: false

Task: Check the results log: what was the call for Nc1ccccc1C(=O)Oc1ccc2ccccc2c1 ?
Result: false

Task: Check the results log: what was the call for CN(C)CCc1c[nH]c2cccc(O)c12 ?
Result: false

Task: Check the results log: what was the call for O=C/C(Cl)=C(/Cl)C(=O)O ?
Result: false

Task: Check the results log: what was the call for O=C1c2ccccc2C(=O)C1C(=O)C(c1ccccc1)c1ccc(Cl)cc1 (centres undefined) ?
Result: true

Task: Check the results log: what was the call for CN(C)CCc1c[nH]c2ccc(O)cc12 ?
Result: false

The measurements presented in this section are drawn from PubChem BioAssay (Tox21).
